species: Rattus norvegicus; experiment: Rat behavioral spontaneous Locomotor Activity; type: functional
Here, each record is paired with measured minimum effective dose on locomotor activity data.
REPORTED PROPERTY: minimum effective dose on locomotor activity (mg/kg)

| STRUCTURE STRING | RESULT NUMBER |
| --- | --- |
| Oc1nc2c(c3nc(-c4ccc(F)cc4)cn13)CN(Cc1ccccc1)CC2 | 1 |
| Oc1nc2c(c3nc(-c4cccc(F)c4)cn13)CN(Cc1ccccc1)CC2 | 2 |
| Oc1nc2c(c3nc(-c4ccccc4F)cn13)CN(Cc1cccnc1)CC2 | 0.5 |
| COc1ccc(-c2cn3c(O)nc4c(c3n2)CN(Cc2ccccc2)CC4)cc1 | 0.06 |
